test: yeast display, Sf9 membrane polyspecificity reagent, FACS + sequencing; frameworks hold sequencing errors
parameter measured: polyreactivity (PSR sort gate)

{"primary sequence": "QVQLVESGGGLVQAGGSLRLSCAASGLIFKLNAMGWYRQAPGKARELVAAIRASTGSTYYADSVKGRFTISRDNAKNTVYLQMNSLKPEDTAVYYCAVRLRWYFFLMDYWGQGTQVTVSS", "test result": "high polyreactivity"}
{"primary sequence": "QVQLVESGGGLVQAGGSLRLSCAASGSIFGSYAIGWYRHAPGKERELVAAIRYNSGSTYYADSVKGRFTISRDNAKNTVYLQMNSLKPEDTAVYYCAAYLLWGFDYWVQGTQVTVSS", "test result": "high polyreactivity"}
{"primary sequence": "QVQLVESGGGVVQAGGSLRLSCAASGITFSRYAMGWYRQAPGKERELVAAISGSGGRTYYADSVKGRFTISRDNAKNTVYLQMNSLKPEDTAVYYCARESSYYKYYYWGQGTQVTVSS", "test result": "high polyreactivity"}
{"primary sequence": "QVQLVESGGGLVQAVGSLRLSCAASGSTFAYYAMGWYRQAPGKEREFVAAISTRGGSTYYADSVKGRFTISRDNAKNTVYLQLISLKQEDTAFYYCAAGYFIYSWRIRFDHWGQGTQVTVSS", "test result": "high polyreactivity"}
{"primary sequence": "QVQLVESGGGLVQAGGSLRLSCAASGSTFVYYAMGWYRQAPGKERELVAAISSSGGTTYYAVSEKGRFTISRDYGKNTGYLLMNSLKPEDTAVYFCAAPYASRGYEYWGQGTQVTVSS", "test result": "high polyreactivity"}
{"primary sequence": "QVQLVESGGGLVQAGGSLRLSCAASGSTFLLYAMGWYRPAPGKERELVATISWGGDGTYYADSVKGRFTISRDNAKNTVYLQMNSLKPEDTAVYYCAAESYLVQFYFLYYYWGQGTQVTVSS", "test result": "low polyreactivity"}
{"primary sequence": "QVQLVESGGGLVQAGGSLRLSCAASGSTFTDYTMGWYRQAPGKERELVARIRSRGARTYYADSVKGRFTISRDNAKNTVYLQMNSLKPEDTAVYYCAAAGVRSYAGDYWGQGTQVTVSS", "test result": "high polyreactivity"}
{"primary sequence": "QVQLVESVGGLVQAGGSLRLSSAASGFTIVGNTMGWSRQAPGKERELVASINTNGGSTYYADSVKGRFTISRDNAKNTVYLQINSLKPEDTAVYYCNARSWYPYDYWGQGTQVTVSS", "test result": "low polyreactivity"}
{"primary sequence": "KVQLVESGAGLVQAGGSLRFSCAASGSIFIVYAMGWYRPAPGKERELVADITNGGDTNYADSVKGRFTISRDNAKNTVYLQMNSLKPEDTAVYYCAKYLWSYRVRTNVWRSYYWGQGTQVSVSS", "test result": "high polyreactivity"}
{"primary sequence": "QVQLVESAAGLVLAGGSLRLSCAASGSIFRFYAMGWSRQAPGQERELVAGITLSGASTYYADSVKGRFTISRDNAKNTVYLQMNSLKPEDTAVYYCAKRYRLDGFYYWGQGTQVTVSS", "test result": "high polyreactivity"}

###

experiment: yeast display, Sf9 membrane polyspecificity reagent, FACS + sequencing; frameworks hold sequencing errors

{"primary sequence": "QVQLVESGGGLVQAGGSLRLSCAASGSTFYPYAMGWYRQATGKERELVAAISYSGGSKYYADSVKGRFTISRDNAKNTVYLQMNSLKPEDTAVYYCAAYYRVYGASYDYWGQVTQVTVSS", "polyreactivity (PSR sort gate)": "high polyreactivity"}
{"primary sequence": "QVQLVESGGGLVQAGGSLRLSWAASGSTFYAYAMGCYRQSPGNERELVATISWSGGSTYADSVKGRFTISRDNAKYTVYLQMNSMTPEDTAVYYCNGSGAFYPTQVHPGYTLWSYDDWGQGTQVTVSS", "polyreactivity (PSR sort gate)": "low polyreactivity"}
{"primary sequence": "QVQLVESGGGLVQAGGSLRLSCAASGLTFRYYAMGWYRQAPGKERELVAAITRRGSTYYADSVKGRFTISRDNAKNTVYLQMNSLKPEDTAVYFCATVTGFHSSPLRDLDYWGHGTQVTVSS", "polyreactivity (PSR sort gate)": "high polyreactivity"}
{"primary sequence": "QVQLVESGGGLVQAGGSLRLSCAASGSTFDYYAMGWYRQAPGKERELVAAITGTGGSTYYADSVKGRFTISRDNAKNTVYLQMNSLKPEDTAVYYCAADTYLGWSYYWGQGTQVTVSS", "polyreactivity (PSR sort gate)": "high polyreactivity"}
{"primary sequence": "QVQLVESGGCLVQAGGSLRLSCAASGFIFDPYVMGWYIQAPGKERELVAAITYNGGRTYYADSVKGRFTISRDNAKNTVYLQMNSLKPEDTAVYYCNKDYRIGQTWYDYWGQVTQVTVSS", "polyreactivity (PSR sort gate)": "low polyreactivity"}
{"primary sequence": "QVQLVESGGGLVQAGGSLRLSCAASGSILYRYTMGWYIQAPGKERELVAAITKRGGRTYYADSVKGRFTISRDTAKNTVYLQMNSLKREDTAVYYCAAKYYTGGSFEMYYWGQGTQVTVSS", "polyreactivity (PSR sort gate)": "high polyreactivity"}
{"primary sequence": "QVQLVESGGGLVQAGGSLRLSCAASGSTFDHYTMGWYRPAPGKERELVAAINRIGDSTYYADSVKGRFTISRDNAKNTVYLQMNSLKPEDTAVYYCAARHVPRFNKYGYWGQGTQVTVSS", "polyreactivity (PSR sort gate)": "high polyreactivity"}
{"primary sequence": "QVQLVESGGGLVQAGGSLRLSCAASGSIFDIYAMGWYRQAPGKERELVADITISGGSTYYADSVKGRFTISRDNAKNTVYLQMNSLKPEDTAVYYCAADVTVVLGYKYDYWGQGTQVTVSS", "polyreactivity (PSR sort gate)": "low polyreactivity"}
{"primary sequence": "QVQLVESGGGLVQAGGSLRLSCAASGLTFVPNARGWYRQAPGKERELVAASSNNGGRTYYADSVKGRFTISRDNAKKTVYLQMNSLKPEDTAVYYCAKYLSPGERHSYDYWGQGTQVTVSS", "polyreactivity (PSR sort gate)": "high polyreactivity"}
{"primary sequence": "QVQLVESGGGLVQAGGSLRLSCAASGITFDYYSMGWYRQAPGTERELVAAISWGGGSTYYADSVKGRFTISRDNAKNTVYLQMNSLKPEDTAVYYCAADIVSSPSSYVPPGDYWGQGTQVTVSS", "polyreactivity (PSR sort gate)": "low polyreactivity"}
